Item-by-item account of Kd
- measurement_target: T1, EsCas13d, nuclease-dead (Eubacterium siraeum, UniProt B0MS50, R295A;H300A;R849A;H854A)
- T1 sequence: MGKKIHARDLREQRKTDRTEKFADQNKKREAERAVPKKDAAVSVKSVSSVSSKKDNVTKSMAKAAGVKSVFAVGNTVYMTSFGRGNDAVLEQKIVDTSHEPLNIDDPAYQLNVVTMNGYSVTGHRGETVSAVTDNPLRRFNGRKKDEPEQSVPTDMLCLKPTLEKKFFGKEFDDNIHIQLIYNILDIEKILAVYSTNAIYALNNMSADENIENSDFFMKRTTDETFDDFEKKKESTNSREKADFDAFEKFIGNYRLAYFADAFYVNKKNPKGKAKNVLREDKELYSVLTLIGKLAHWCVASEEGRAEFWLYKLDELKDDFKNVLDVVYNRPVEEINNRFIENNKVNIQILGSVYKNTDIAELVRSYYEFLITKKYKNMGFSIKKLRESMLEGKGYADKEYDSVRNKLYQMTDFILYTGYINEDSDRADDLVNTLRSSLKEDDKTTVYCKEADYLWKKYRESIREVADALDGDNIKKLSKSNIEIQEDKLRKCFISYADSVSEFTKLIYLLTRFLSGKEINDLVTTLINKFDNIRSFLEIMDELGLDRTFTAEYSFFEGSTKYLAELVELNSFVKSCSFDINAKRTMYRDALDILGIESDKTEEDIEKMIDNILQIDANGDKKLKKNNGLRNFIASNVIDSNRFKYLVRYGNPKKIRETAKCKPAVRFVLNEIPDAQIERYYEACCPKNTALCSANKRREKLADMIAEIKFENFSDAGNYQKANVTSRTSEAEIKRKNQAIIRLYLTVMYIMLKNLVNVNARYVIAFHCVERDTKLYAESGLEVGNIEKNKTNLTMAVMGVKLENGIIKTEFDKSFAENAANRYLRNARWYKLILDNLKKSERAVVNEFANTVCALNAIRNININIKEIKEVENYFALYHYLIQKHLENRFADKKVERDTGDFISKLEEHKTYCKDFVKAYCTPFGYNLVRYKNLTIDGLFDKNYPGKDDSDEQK
- assay_details: crRNA (strand 1, pre-loaded); Mg2+; 40 mM Tris-HCl pH 7.5, 150 mM NaCl, 6 mM MgCl2, 1 mM DTT, 0.1% Tween-20, 0.2 mg/ml BSA; 25 C; 10 min per concentration, then washed
- stated_conditions: tags: His6-TwinStrep-SUMO cleaved; N-terminal SNAP kept (SNAP-Surface 488); label: 3' end held by stalled T7 RNA polymerase
property_label: Kd (nM)

[
  {
    "binder": "target 2 MT 5'PFS AGU 3'PFS CAU (mixed) RNA 1: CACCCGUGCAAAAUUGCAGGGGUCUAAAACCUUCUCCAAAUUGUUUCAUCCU RNA 2: GGGAAUGGAUCCACAUCUACGAAUUCAGUAGGAUGAAACAAUUUGGAGAAGCAUAGAUCGGAAGAGCACACGU",
    "result_number": 11.1
  },
  {
    "binder": "target 3 U2G,U22C (mixed) RNA 1: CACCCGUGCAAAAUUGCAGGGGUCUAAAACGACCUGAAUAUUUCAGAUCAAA RNA 2: GGGAAUGGAUCCACAUCUACGAAUUCGUUCUUGAUCUGAAAUAUUCAGGGCUGCAGAUCGGAAGAGCACACGU",
    "result_number": 19.8
  },
  {
    "binder": "target 2 MT 5'PFS ACA 3'PFS AAG (mixed) RNA 1: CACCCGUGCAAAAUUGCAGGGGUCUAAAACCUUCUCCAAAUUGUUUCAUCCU RNA 2: GGGAAUGGAUCCACAUCUACGAAUUCACAAGGAUGAAACAAUUUGGAGAAGAAGAGAUCGGAAGAGCACACGU",
    "result_number": 10
  },
  {
    "binder": "target 2 MT 5'PFS UUG 3'PFS CGC (mixed) RNA 1: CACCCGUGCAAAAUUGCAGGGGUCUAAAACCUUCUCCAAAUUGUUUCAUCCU RNA 2: GGGAAUGGAUCCACAUCUACGAAUUCUUGAGGAUGAAACAAUUUGGAGAAGCGCAGAUCGGAAGAGCACACGU",
    "result_number": 15.9
  },
  {
    "binder": "target 1 insG 3' of 7,insG 3' of 1 (mixed) RNA 1: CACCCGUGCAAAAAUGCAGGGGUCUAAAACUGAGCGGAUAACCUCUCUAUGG RNA 2: GGGAAUGGAUCCACAUCUACGAAUUCGUACCAUAGAGAGGUUAUCGCGCUCAGCCGAGAUCGGAAGAGCACACGU",
    "result_number": 6.65
  },
  {
    "binder": "target 2 MT 5'PFS UAG 3'PFS CCG (mixed) RNA 1: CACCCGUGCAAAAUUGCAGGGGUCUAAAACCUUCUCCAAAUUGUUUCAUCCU RNA 2: GGGAAUGGAUCCACAUCUACGAAUUCUAGAGGAUGAAACAAUUUGGAGAAGCCGAGAUCGGAAGAGCACACGU",
    "result_number": 2.56
  },
  {
    "binder": "target 1 C2U,U8G (mixed) RNA 1: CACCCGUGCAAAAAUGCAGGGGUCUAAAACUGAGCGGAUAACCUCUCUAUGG RNA 2: GGGAAUGGAUCCACAUCUACGAAUUCGUACCAUAGAGAGGUUAGCCGCUUACCGAGAUCGGAAGAGCACACGU",
    "result_number": 17.1
  },
  {
    "binder": "target 2 MT 5'PFS UGG 3'PFS UCA (mixed) RNA 1: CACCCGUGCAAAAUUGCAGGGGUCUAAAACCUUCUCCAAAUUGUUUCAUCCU RNA 2: GGGAAUGGAUCCACAUCUACGAAUUCUGGAGGAUGAAACAAUUUGGAGAAGUCAAGAUCGGAAGAGCACACGU",
    "result_number": 8.5
  }
]
